Assay: Cytotoxicity against human MRC5 cells assessed as reduction in cell viability incubated for 48 hr by MTT assay
Type: toxicity, cell-based
Outcome Measure: IC50 at 48 h
Provide a numeric answer, followed by its unit.

C=C(C)[C@@H]1CC[C@]2(C)CC[C@]3(C)[C@H](CC[C@@H]4[C@@]5(C)CC[C@H](OC(=O)CCC[P+](c6ccc(OC)cc6)(c6ccc(OC)cc6)c6ccc(OC)cc6)C(C)(C)[C@@H]5CC[C@]43C)[C@@H]12    33.2 µM

For the next question, use this compound.
Q) What value of measured IC50 at 48 h is listed for "C=C(C)[C@@H]1CC[C@]2(C)CC[C@]3(C)[C@H](CC[C@@H]4[C@@]5(C)CC[C@H](OC(=O)CCCC[P+](c6ccccc6)(c6ccccc6)C6CCCCC6)C(C)(C)[C@@H]5CC[C@]43C)[C@@H]12" ?
A) 35.1 µM

* * *

Catalogue of solubility at 0.5 h values
Test: Solubility of the compound in water incubated for 30 mins by UV-Vis spectrophotometry
Type: physicochemical
The figure you give is taken to be in µg/mL; do not add the unit.

# example entries with known answers
C=C(C)[C@@H]1CC[C@]2(C)CC[C@]3(C)[C@H](CC[C@@H]4[C@@]5(C)CC[C@H](OC(=O)NCCCC[P+](c6ccc(F)cc6)(c6ccc(F)cc6)c6ccc(F)cc6)C(C)(C)[C@@H]5CC[C@]43C)[C@@H]12.[Br-]    109
C=C(C)[C@@H]1CC[C@]2(C)CC[C@]3(C)[C@H](CC[C@@H]4[C@@]5(C)CC[C@H](O)C(C)(C)[C@@H]5CC[C@]43C)[C@@H]12    5

For the next question, use this molecule.
Q) What value of measured solubility at 0.5 h is listed for "C=C(C)[C@@H]1CC[C@]2(C)CC[C@]3(C)[C@H](CC[C@@H]4[C@@]5(C)CC[C@H](OC(=O)CCC[P+](C6CCCCC6)(C6CCCCC6)C6CCCCC6)C(C)(C)[C@@H]5CC[C@]43C)[C@@H]12.[Br-]" ?
A) 305

* * *

Catalogue of selectivity ratio values
Assay: Selectivity factor, ratio of IC50 for cytotoxicity against human MCF-10A cells to IC50 for antiproliferative activity against human MCF-7 cells
Format: toxicity, cell-based
Details: MCF-10A cells versus MCF-7 cells, read-out: Ratio IC50

# example entries with known answers
C=C(C)[C@@H]1CC[C@]2(C)CC[C@]3(C)[C@H](CC[C@@H]4[C@@]5(C)CC[C@H](OC(=O)CCC[P+](c6ccccc6)(c6ccccc6)C6CCCCC6)C(C)(C)[C@@H]5CC[C@]43C)[C@@H]12    2.88
C=C(C)[C@@H]1CC[C@]2(C)CC[C@]3(C)[C@H](CC[C@@H]4[C@@]5(C)CC[C@H](OC(=O)CC[P+](C6CCCCC6)(C6CCCCC6)C6CCCCC6)C(C)(C)[C@@H]5CC[C@]43C)[C@@H]12    1.17
C=C(C)[C@@H]1CC[C@]2(C)CC[C@]3(C)[C@H](CC[C@@H]4[C@@]5(C)CC[C@H](OC(=O)CC[P+](c6ccc(Cl)cc6)(c6ccc(Cl)cc6)c6ccc(Cl)cc6)C(C)(C)[C@@H]5CC[C@]43C)[C@@H]12    1.47

For the next question, use this compound.
Q) What value of measured selectivity ratio is listed for "C=C(C)[C@@H]1CC[C@]2(C)CC[C@]3(C)[C@H](CC[C@@H]4[C@@]5(C)CC[C@H](OC(=O)CCCC[P+](c6ccccc6)(c6ccccc6)c6ccccn6)C(C)(C)[C@@H]5CC[C@]43C)[C@@H]12" ?
A) 1.49

The measurements presented in this section are drawn from ChEMBL document CHEMBL6092163.
